We begin with a simple list: items and their reported Cmax.
test: Cmax in Sprague-Dawley rat at 25 mg/kg administered via oral gavage by LC-MS/MS analysis; type: ADME, organism-based; design: dose 25 mg/kg, route oral; conditions: in vivo
Unit ng/mL implied. Number only.

Some solved cases for reference:
{"compound": "C=CC(=O)Nc1cc(-n2c(=O)cc(C)c3cnc(Nc4ccc(N5CCN(C)CC5)cc4OC)nc32)cc(C(F)(F)F)c1.CS(=O)(=O)O", "quantity": "Cmax", "experimentalValue": 161}
{"compound": "C=CC(=O)Nc1cc(-n2c(=O)cc(C)c3cnc(Nc4ccc(N5CC(C)N(C)C(C)C5)cc4OC)nc32)cc(C(F)(F)F)c1.CS(=O)(=O)O (stereo unspecified)", "quantity": "Cmax", "experimentalValue": 17.4}
{"compound": "C=CC(=O)Nc1cc(-n2c(=O)cc(C)c3cnc(Nc4ccc(N5CCN(C)C(C)C5)cc4OC)nc32)cc(C(F)(F)F)c1.CS(=O)(=O)O (stereo unspecified)", "quantity": "Cmax", "experimentalValue": 21.4}
{"compound": "C=CC(=O)Nc1cccc(-n2c(=O)cc(C)c3cnc(Nc4ccc(N5CCN(C)CC5)cc4OC)nc32)c1.CS(=O)(=O)O", "quantity": "Cmax", "experimentalValue": 83.1}
{"compound": "C=CC(=O)Nc1cccc(-n2c(=O)cc(C)c3cnc(Nc4ccc(N5CC(C)N(C)C(C)C5)cc4OC)nc32)c1.CS(=O)(=O)O (stereo unspecified)", "quantity": "Cmax", "experimentalValue": 64.4}

Lab note: next compound to report on.
Requested read-out: Cmax. Entry: C=CC(=O)Nc1cccc(-n2c(=O)cc(C)c3cnc(Nc4ccc(N5CCN(C)C(C)C5)cc4OC)nc32)c1.CS(=O)(=O)O (stereo unspecified)
155

* * *

We begin with a simple list: items and their reported Tmax.
assay: Tmax in Sprague-Dawley rat at 25 mg/kg administered via oral gavage by LC-MS/MS analysis; assay type: ADME, organism-based; conditions: in vivo
Unit h implied. Number only.

Some solved cases for reference:
{"compound": "C=CC(=O)Nc1cc(-n2c(=O)cc(C)c3cnc(Nc4ccc(N5CCN(C)C(C)C5)cc4OC)nc32)cc(C(F)(F)F)c1.CS(=O)(=O)O (stereo unspecified)", "unitInfo": "h", "Tmax": 1.67}
{"compound": "C=CC(=O)Nc1cccc(-n2c(=O)cc(C)c3cnc(Nc4ccc(N5CCN(C)CC5)cc4OC)nc32)c1.CS(=O)(=O)O", "unitInfo": "h", "Tmax": 1.56}
{"compound": "C=CC(=O)Nc1cccc(-n2c(=O)cc(C)c3cnc(Nc4ccc(N5CC(C)N(C)C(C)C5)cc4OC)nc32)c1.CS(=O)(=O)O (stereo unspecified)", "unitInfo": "h", "Tmax": 4}
{"compound": "C=CC(=O)Nc1cccc(-n2c(=O)cc(C)c3cnc(Nc4ccc(N5CCN(C)C(C)C5)cc4OC)nc32)c1.CS(=O)(=O)O (stereo unspecified)", "unitInfo": "h", "Tmax": 1.67}
{"compound": "C=CC(=O)Nc1cc(-n2c(=O)cc(C)c3cnc(Nc4ccc(N5CC(C)N(C)C(C)C5)cc4OC)nc32)cc(C(F)(F)F)c1.CS(=O)(=O)O (stereo unspecified)", "unitInfo": "h", "Tmax": 6}

Lab note: next compound to report on.
Requested read-out: Tmax. Entry: C=CC(=O)Nc1cc(-n2c(=O)cc(C)c3cnc(Nc4ccc(N5CCN(C)CC5)cc4OC)nc32)cc(C(F)(F)F)c1.CS(=O)(=O)O
2

Sourced from ChEMBL document CHEMBL4000215
